# SUBJECT OF TEST: human recombinant sGC enzyme (Homo sapiens (Human), UniProt Q02108+Q02153)
# PROCEDURE SUMMARY: Size Exclusion Chromatography (SEC) competition binding assay using [3H] Ex-77B as the radioligand
# MEASUREMENT PARAMETERS: [3H] Ex-77B radioligand, 24 hours at 37° C.
PROPERTY: log10 Ki (log10 of the value in nM)

> print(dat)
                                    compound                           subject.of.test  meas.value
 1  C[C@@]1(c2ccc(CCC(=O)O)cc2)C(=O)Nc2nc(-c3nn(CCC(F)(F)C(F)(F)F)c4cc(Cl)ccc34)nc(N)c21 [Example 10B]  human recombinant sGC enzyme (Homo sapiens (Human), UniProt Q02108+Q02153)       -0.82
 2  CC(C)(Cc1coc(C2(C)C(=O)Nc3nc(-c4nn(CC5CCCC5)c5ncccc45)nc(N)c32)n1)C(=O)O (stereo not shown) [Example 154A]  human recombinant sGC enzyme (Homo sapiens (Human), UniProt Q02108+Q02153)       -1.04
 3  C[C@@]1(c2ccc(CCC(=O)NCc3nn[nH]n3)cc2)C(=O)Nc2nc(-c3nn(Cc4ccccc4F)c4ncccc34)nc(N)c21 [Example 108B]  human recombinant sGC enzyme (Homo sapiens (Human), UniProt Q02108+Q02153)       -1.25
 4  CC1(c2ccc(CCc3nn[nH]n3)cn2)C(=O)Nc2nc(-c3nn(Cc4ccccc4F)c4ccccc34)nc(N)c21 (single isomer, unassigned) [Example 246A]  human recombinant sGC enzyme (Homo sapiens (Human), UniProt Q02108+Q02153)       -0.66
 5  CC(C)(C)CCn1nc(-c2nc(N)c3c(n2)NC(=O)[C@@]3(C)c2ccc(CCC(=O)O)cc2)c2cccnc21 [Example 210B]  human recombinant sGC enzyme (Homo sapiens (Human), UniProt Q02108+Q02153)       -0.47
 6  C[C@@]1(c2ccc(CCC(=O)O)cc2)C(=O)Nc2nc(-c3nn(CCCC(F)(F)F)c4ncccc34)nc(N)c21 [Example 15B]  human recombinant sGC enzyme (Homo sapiens (Human), UniProt Q02108+Q02153)       -0.34
 7  CCCCn1nc(-c2nc(N)c3c(n2)NC(=O)C3(C)c2cn(CCC(=O)O)nn2)c2ccc(Cl)cc21 (stereo not shown) [Example 36B]  human recombinant sGC enzyme (Homo sapiens (Human), UniProt Q02108+Q02153)       -0.04
 8  CC1(c2cn(C(C)(C)C(=O)O)nn2)C(=O)Nc2nc(-c3nn(CCC(F)(F)C(F)(F)F)c4cc(Cl)ccc34)nc(N)c21 (stereo not shown) [Example 30B]  human recombinant sGC enzyme (Homo sapiens (Human), UniProt Q02108+Q02153)       -0.25
 9  CC1(c2ccc(/C=C/C(=O)O)cc2)C(=O)Nc2nc(-c3nn(Cc4ccccc4F)c4ncccc34)nc(N)c21 (stereo not shown) [Example 217A]  human recombinant sGC enzyme (Homo sapiens (Human), UniProt Q02108+Q02153)       -1.17
10  CC(C)(Cc1coc(C2(C)C(=O)Nc3nc(-c4nn(Cc5ccccc5F)c5ccccc45)nc(N)c32)n1)c1nn[nH]n1 (stereo not shown) [Example 248B]  human recombinant sGC enzyme (Homo sapiens (Human), UniProt Q02108+Q02153)       -1.32
11  CC(C)(Cc1coc(C2(C)C(=O)Nc3nc(-c4nn(Cc5cccc(F)c5)c5cc(Cl)ccc45)nc(N)c32)n1)C(=O)O (stereo not shown) [Example 175A]  human recombinant sGC enzyme (Homo sapiens (Human), UniProt Q02108+Q02153)       -0.82
12  Cc1cc(C2(C)C(=O)Nc3nc(-c4nn(CCC(F)(F)C(F)(F)F)c5cc(Cl)ccc45)nc(N)c32)ccc1CCC(=O)O (stereo not shown) [Example 121B]  human recombinant sGC enzyme (Homo sapiens (Human), UniProt Q02108+Q02153)       -0.63
13  CC1(c2ccc(/C=C/C(=O)O)cc2)C(=O)Nc2nc(-c3nn(Cc4ccccc4F)c4cc(Cl)ccc34)nc(N)c21 (stereo not shown) [Example 218A]  human recombinant sGC enzyme (Homo sapiens (Human), UniProt Q02108+Q02153)       -1.24

Source of measurements: patent US10030027B2
